Test system: HBV rcDNA in HepDE19 cells
experimental protocol: HepDE19 assay with bDNA quantitation of HBV rcDNA
Type: cell-based, hepatitis B virus (HBV)
condition set: Hepatitis B virus, HepDE19, 168 h, inhibition of rcDNA formation in HepDE19 cells (HepG2 derived), Tet-free medium, 7 day incubation, Quantigene 2.0 bDNA readout, top concentration 25 μM; read-out: DE-19bDNA EC50
Kindly state pEC50 for each of the entries shown.
Answers are plain numbers, as −log10 of the molar value.

Answered cases to consult:
{"molecule": "O=C(Nc1ccc(F)c(Cl)c1)N[C@@H]1COCc2[nH]c(=O)c3cc(F)c(F)cc3c21 (single isomer, unassigned)", "recorded measurement": 7.52}
{"molecule": "CN(C(=O)Nc1ccc(F)c(Cl)c1)C1CCCc2[nH]c(=O)c3cc(F)ccc3c21 (stereo not drawn)", "recorded measurement": 7.52}
{"molecule": "Cc1cc(NC(=O)N(C)C2COCc3[nH]c(=O)c4cc(F)ccc4c32)ccc1F (stereo not drawn)", "recorded measurement": 8.00}
{"molecule": "O=C(Nc1ccc(F)c(Cl)c1)N(CCCO)C1CCCc2[nH]c(=O)cc(C(F)(F)F)c21 (stereo not drawn)", "recorded measurement": 5.77}
{"molecule": "CN(C(=O)Nc1ccc(F)c(C(F)F)c1)C1COCc2[nH]c(=O)c3cc(F)ccc3c21 (single isomer, unassigned) [Compound 123]", "recorded measurement": 6.25}

Value sought for every listed molecule: pEC50.
1. CN(C(=O)Nc1ccc(F)c(Cl)c1)C1CCCc2c1c1ccccc1c(=O)n2C (stereo not drawn)
2. CN(C(=O)Nc1ccc(F)c(Cl)c1)C1C[S+]([O-])Cc2[nH]c(=O)c3cc(F)ccc3c21 (stereo not drawn)

[6.59, 5.36]

Batch: pEC50 for all items listed.
1. CN(C(=O)Nc1ccc(F)c(Cl)c1)[C@@H]1COCc2c1c1cc(F)c(F)cc1c(=O)n2CCO
2. CC(C)CN(C(=O)Nc1ccc(F)c(Cl)c1)C1COCc2[nH]c(=O)c3ccccc3c21 (stereo not drawn)

1: 7.24; 2: 7.70

====

Kindly state pEC50 for each of the entries shown.
System: HBV rcDNA in HepDE19 cells
experimental protocol: HepDE19 assay with bDNA quantitation of HBV rcDNA
Assay type: cell-based, hepatitis B virus (HBV)
condition set: Hepatitis B virus, HepDE19, 168 h, inhibition of rcDNA formation in HepDE19 cells (HepG2 derived), Tet-free medium, 7 day incubation, Quantigene 2.0 bDNA readout, top concentration 25 μM; read-out: DE-19bDNA EC50
Numbers only, as −log10 of the molar value.

Example entries and their recorded answers appear below.
{"compound": "CN(C(=O)Nc1ccc(F)c(Cl)c1)C1CCCc2[nH]c(=O)c3cc(F)c(F)cc3c21 (racemic) [Compound 15]", "recorded measurement": 7.70}
{"compound": "CN(C(=O)N1Cc2ccccc2C1)[C@@H]1COCc2[nH]c(=O)c3cc(F)c(F)cc3c21 [Compound 218]", "recorded measurement": 5.92}
{"compound": "CC(C)CN(C(=O)Nc1ccc(F)c(Cl)c1)C1CCCc2[nH]c(=O)c3cc(F)ccc3c21 (centres unmarked) [Compound 10]", "recorded measurement": 7.22}
{"compound": "CN(C(=O)Nc1ccc(F)c(Cl)c1)[C@@H]1COCc2nc(OCCO)c3cc(F)c(F)cc3c21 [Compound 255]", "recorded measurement": 7.31}
{"compound": "CCN(C(=O)Nc1ccc(F)c(Cl)c1)[C@@H]1COCc2[nH]c(=O)c3cc(F)ccc3c21 (single isomer, unassigned) [Compound 87]", "recorded measurement": 8.00}

// each listed compound needs a value for pEC50
1. CN(C(=O)Nc1ccc(F)c(F)c1)C1CCCc2[nH]c(=O)c3cc(F)ccc3c21 (centres unmarked) [Compound 32]
2. CN(C(=O)Nc1ccc(F)c(Cl)c1)C1COCc2[nH]c(=O)c3cc(Cl)ccc3c21 (centres unmarked) [Compound 55]

6.96
7.30
